Overview of reported melting point across a group of compounds:

| cpd smiles | melting point |
| --- | --- |
| NC(=O)CCc1ccc(-c2nc(=O)c3ccccc3s2)nc1 | 247.5 to 247.8 °C |
| CCOc1cccc(-c2nc(=O)c3ccccc3s2)n1 | 179.5 to 180 °C |

Q: Name the reported melting point value associated with the compound CC(C)Oc1ccc(-c2nc(=O)c3ccccc3s2)cn1
A: 109.7 to 110.4 °C

====

Overview of reported melting point across a group of compounds:

Example cases with answers are listed next.
| compound | observed value |
| --- | --- |
| O=c1nc(-c2ccc(N3CCCC3)nc2)sc2ccccc12 | 221 to 223.1 °C |
| O=C(O)CCc1cccc(-c2nc(=O)c3ccc(F)cc3s2)n1 | 215 to 217 °C |
| Cc1ccc2sc(-c3ccccn3)nc(=O)c2c1 | 219.8 to 220.8 °C |
| COC(=O)CS(=O)(=O)Cc1cccc(-c2nc(=O)c3ccccc3s2)n1 | 205 to 207 °C |

Q: Name the reported melting point value associated with the compound CC(C)(C)OC(=O)CNc1nccc(-c2nc(=O)c3ccccc3s2)n1
A: 247 to 248 °C

Q: Ok, now O=c1nc(-c2cccc(-c3cccs3)n2)sc2ccccc12
A: 222.2 to 223.4 °C

Q: Ok, now C[S+]([O-])c1cc(-c2nc(=O)c3ccccc3s2)ccn1 (stereo not shown)
A: 172.5 to 174 °C

Q: Ok, now CN(C)CCSc1cncc(-c2nc(=O)c3ccccc3s2)n1
A: 160.5 °C (dec.)

Q: Ok, now O=c1nc(-c2cccc(-c3ccccn3)n2)sc2ccccc12
A: 222.1 to 223.9 °C

Q: Ok, now O=c1nc(-c2cccs2)sc2ccccc12
A: 157.7 to 158.2 °C

Q: Ok, now O=c1nc(-c2ccco2)sc2ccccc12
A: 170 to 171.5 °C

====

observation type: melting point

| compound | observed value |
| --- | --- |
| O=c1nc(-c2cccc(CCc3nnn[nH]3)n2)sc2ccccc12 | 156.6 to 157 °C |

Q: Name the reported melting point value associated with the compound C[S+]([O-])c1cncc(-c2nc(=O)c3ccccc3s2)n1 (stereo not shown)
A: 228.5 to 230.5 °C

Q: Ok, now CC(C)(C)OC(=O)CCOCCCc1ccnc(-c2nc(=O)c3ccccc3s2)c1
A: 81.1 to 82.2 °C

Q: Ok, now Cc1cc(CCC(=O)OC(C)(C)C)nc(-c2nc(=O)c3ccccc3s2)c1
A: 168.5 to 169.3 °C

Q: Ok, now O=C(c1cccc(-c2nc(=O)c3ccccc3s2)n1)N1CCCC1
A: 232 to 234 °C

Q: Ok, now O=c1nc(-c2ccccn2)sc2cc(F)ccc12
A: 250 to 250.2 °C

====

Structures can show the parent of a compound that is named as a salt.
observation type: melting point

Example cases with answers are listed next.
| compound | melting point |
| --- | --- |
| O=c1nc(-c2ccccn2)sc2ccc(O)cc12 | 313.3 to 315 °C |
| CN(C)c1cncc(-c2nc(=O)c3ccccc3s2)n1 | 248 to 249 °C |
| CS(=O)(=O)c1ccnc(-c2nc(=O)c3ccccc3s2)c1 | 300 to 301 °C |
| Cc1ccc(Sc2cccc(-c3nc(=O)c4ccccc4s3)n2)cc1 | 176.9 to 178.4 °C |
| O=C(O)CCc1ccnc(-c2nc(=O)c3ccccc3s2)c1 | 215.3 to 215.9 °C |
| CCSCc1cccc(-c2nc(=O)c3ccccc3s2)n1 | 142 to 143.5 °C |
| Cc1cc(CCC(=O)O)nc(-c2nc(=O)c3ccc(Cl)cc3s2)c1 | 232.2 to 233.2 °C |
| COc1ccc2c(=O)nc(-c3cccc(CCC(=O)O)n3)sc2c1 | 234.2 to 235.2 °C |
| Cc1ccnc(-c2cc(C)cc(-c3nc(=O)c4ccccc4s3)n2)c1 | 234.9 to 235.2 °C |
| NCCc1cccc(-c2nc(=O)c3ccccc3s2)n1 (as salt: trifluoroacetic acid salt) | 206.2 to 207.1 °C |

Q: Name the reported melting point value associated with the compound CCNC(=O)NCCc1cccc(-c2nc(=O)c3ccccc3s2)n1
A: 240.3 to 242.4 °C

Q: Ok, now O=c1nc(-c2cccc(CP(=O)(O)O)n2)sc2ccccc12
A: 254 °C (dec.)

Q: Ok, now O=C(O)CCOCCCc1ccc(-c2nc(=O)c3ccccc3s2)nc1
A: 145.2 to 146.6 °C

Q: Ok, now Cc1ccnc(-c2nc(=O)c3ccc(Cl)cc3s2)c1
A: 246.2 to 246.7 °C

Q: Ok, now CCOC(=O)C(C)Cc1cccc(-c2nc(=O)c3ccccc3s2)n1 (centres unmarked)
A: 120.2 to 120.7 °C

Q: Ok, now O=c1nc(-c2ccnc(N3CCOCC3)c2)sc2ccccc12
A: 157 to 158 °C

Q: Ok, now O=C(O)[C@@H]1CCCN1C(=O)CCc1cccc(-c2nc(=O)c3ccccc3s2)n1
A: 210.5 to 211 °C

Q: Ok, now Cc1ccc(Sc2ccc(-c3nc(=O)c4ccccc4s3)cn2)cc1
A: 172.6 to 172.8 °C

====

observation type: melting point

| cpd smiles | observation type | observed value |
| --- | --- | --- |
| CSc1nccc(-c2nc(=O)c3ccccc3s2)n1 | melting point | 223.5 to 224 °C |

Q: Name the reported melting point value associated with the compound Cc1cccc2sc(-c3ccccn3)nc(=O)c12
A: 150.8 to 151.3 °C

Q: Ok, now CC(C)(C)OC(=O)NCCc1ccnc(-c2nc(=O)c3ccc(Cl)cc3s2)c1
A: 168.2 to 169.2 °C

Q: Ok, now CCN(CC)C(=O)NCCc1cccc(-c2nc(=O)c3ccccc3s2)n1
A: 174.9 to 175.6 °C

====

observation type: melting point

Example cases with answers are listed next.
| molecule | observation type | observed value |
| --- | --- | --- |
| O=c1nc(-c2cccc([S+]([O-])CCCc3ccccc3)n2)sc2ccccc12 (stereo not drawn) | melting point | 164.5 to 165.5 °C |
| CSc1cc(CCC(=O)O)cc(-c2nc(=O)c3ccccc3s2)n1 | melting point | 235.5 to 236.5 °C |
| Cn1ccnc1Sc1cccc(-c2nc(=O)c3ccccc3s2)n1 | melting point | 171.9 to 172.3 °C |
| O=C(O)CCOCCCc1ccnc(-c2nc(=O)c3ccccc3s2)c1 | melting point | 153.8 to 153.9 °C |
| CC(C)(C)OC(=O)CN1CCN(c2ccnc(-c3nc(=O)c4ccccc4s3)c2)C1=O | melting point | 192.3 to 194 °C |
| O=C(O)CCc1cccc(-c2nc(=O)c3ccc(Cl)cc3s2)n1 | melting point | 224.4 to 224.7 °C |

Q: Name the reported melting point value associated with the molecule O=c1nc(-c2ccccn2)sc2cc(Cl)ccc12
A: 245.3 to 245.6 °C

Q: Ok, now Cc1cc(CCC(=O)O)nc(-c2nc(=O)c3ccccc3s2)c1
A: 244.6 to 245.5 °C

Q: Ok, now COc1ccc2c(=O)nc(-c3ccccn3)sc2c1
A: 200 to 202.2 °C

Q: Ok, now CS(=O)(=O)Cc1cccc(-c2nc(=O)c3ccccc3s2)n1
A: 230.5 to 231.5 °C

Q: Ok, now O=c1nc(-c2ccccn2)sc2ncccc12
A: 234.7 to 234.9 °C

Q: Ok, now Cc1cccc2c(=O)nc(-c3cccc(C(=O)OC(C)(C)C)n3)sc12
A: 204.3 to 204.7 °C

====

Overview of reported melting point across a group of compounds:

Example cases with answers are listed next.
| cpd smiles | melting point |
| --- | --- |
| Cc1cc(CCC(=O)OC(C)(C)C)nc(-c2nc(=O)c3ccc(Cl)cc3s2)c1 | 162.3 to 163 °C |
| CC(C)(C)OC(=O)CCc1cc(-c2nc(=O)c3ccccc3s2)nc(S(C)(=O)=O)c1 | 223 °C (dec.) |
| O=C(O)CNC(=O)CCc1cccc(-c2nc(=O)c3ccccc3s2)n1 | 219.2 to 219.8 °C |
| CS(=O)(=O)c1cccc(-c2nc(=O)c3ccccc3s2)n1 | 238.2 to 239.5 °C (dec.) |

Q: Name the reported melting point value associated with the compound Cc1ccc2c(=O)nc(-c3ccccn3)sc2c1
A: 225 to 225.2 °C

====

observation type: melting point

| molecule | melting point |
| --- | --- |
| O=c1nc(-c2ccnc(OCc3ccccc3)c2)sc2ccccc12 | 116 to 116.5 °C |
| O=C(O)CCCCCOc1ccc2sc(-c3ccccn3)nc(=O)c2c1 | 205.4 to 206.3 °C |

Q: Name the reported melting point value associated with the molecule O=c1nc(-c2cccc(S(=O)(=O)Cc3ccccc3)n2)sc2ccccc12
A: 217 to 218 °C

Q: Ok, now CC(C)(C)OC(=O)CCc1cccc(-c2nc(=O)c3ccc(Cl)cc3s2)n1
A: 167.9 to 168.2 °C
